Hi, quick share: literature pIC50 data for UniProtKB P43490, several sources combined.
Sequence (P43490 whole entry): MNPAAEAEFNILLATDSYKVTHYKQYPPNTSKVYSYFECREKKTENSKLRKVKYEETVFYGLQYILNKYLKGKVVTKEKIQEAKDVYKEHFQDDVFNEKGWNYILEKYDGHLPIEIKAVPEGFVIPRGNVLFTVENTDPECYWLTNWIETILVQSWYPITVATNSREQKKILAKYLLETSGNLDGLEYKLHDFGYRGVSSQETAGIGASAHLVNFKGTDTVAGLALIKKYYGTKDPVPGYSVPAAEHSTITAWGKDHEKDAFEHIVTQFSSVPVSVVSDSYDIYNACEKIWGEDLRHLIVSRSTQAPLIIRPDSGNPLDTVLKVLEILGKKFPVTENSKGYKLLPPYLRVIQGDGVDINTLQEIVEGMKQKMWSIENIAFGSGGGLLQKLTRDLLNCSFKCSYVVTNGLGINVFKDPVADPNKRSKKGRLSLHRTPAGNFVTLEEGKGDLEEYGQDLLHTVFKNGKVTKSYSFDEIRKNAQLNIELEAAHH
pIC50: −log10 of the molar value.
property-name: pIC50

Example entries and their recorded answers appear below.
compound | property-name | observed
Cc1ccc(C)c(C(=O)N2CCC(c3ccc(NC(=O)C4CN(c5cccnn5)C4)cc3)CC2)c1 | pIC50 | 9.06
O=C(NCc1ccn2ccnc2c1)c1ccc(O[C@H]2CCN(C(=O)C3CCOCC3)C2)cc1 | pIC50 | 9.34
CC1(C(=O)N2CCC(c3ccc(NC(=O)C4CN(c5cccnc5)C4)cc3)CC2)CCCCC1 | pIC50 | 9.45
O=C(Nc1ccc(OC2CCN(C(=O)c3cccc(F)c3)CC2)cc1)C1CN(c2cccnn2)C1 | pIC50 | 9.08
O=C(Nc1ccc(C2CCN(C(=O)CC(F)(F)F)CC2)cc1)C1CN(c2cccnn2)C1 | pIC50 | 9.16
O=C(Nc1ccc(OC2CCN(C(=O)c3ccsc3)CC2)cc1)C1CN(c2cccnc2)C1 | pIC50 | 9.17
COc1ccc(C(=O)N2CCC(c3ccc(C(=O)NCc4ccn5ccnc5c4)s3)C2)cc1 (centres unmarked) | pIC50 | 9.34

(a) CC(C)(C)CC(=O)N1CCC(c2ccc(C(=O)NCc3ccn4ccnc4c3)s2)C1 (centres unmarked)
(b) O=C(CCCCCCCNc1c(Nc2ccncc2)c(=O)c1=O)N1CC(O)C1
(c) CC(C)(C)C(=O)N1CCC(Oc2ccc(NC(=O)C3CN(c4cccnc4)C3)cc2)CC1
Q: List by increasing pIC50. Please write the labels in the order that was asked for.
A: b, c, a
